tested on: Candida albicans; assay: Antifungal activity against Candida albicans MTCC 227 by serial dilution method; format: functional; parameters: unit not given here
Here the recorded -logMIC is given for each entry.

{"columns": ["Structure smiles string", "-logMIC"],
 "data": [
  ["COc1ccc(C(=O)O)cc1OC", 1.22],
  ["COc1ccc(C(=O)Nc2ccc(C)cc2)cc1OC", 1.32],
  ["COc1ccc(C(=O)N(CCO)CCO)cc1OC", 1.31],
  ["COc1ccc(C(=O)NN)cc1OC", 1.15],
  ["CCCCCCOC(=O)c1ccc(OC)c(OC)c1", 1.3],
  ["COc1ccc(C(N)=O)cc1OC", 1.25],
  ["COc1ccc(C(=O)Nc2ccccc2Cl)cc1OC", 1.34],
  ["COc1ccc(C(=O)OC(C)C)cc1OC", 1.35],
  ["COc1ccc(C(=O)OC(C)(C)C)cc1OC", 1.38],
  ["CCCCOC(=O)c1ccc(OC)c(OC)c1", 1.2],
  ["COc1ccc(C(=O)Nc2ccc([N+](=O)[O-])cc2)cc1OC", 1.32],
  ["COc1ccc(C(=O)NCc2ccccc2)cc1OC", 1.32]
]}
